Where these numbers come from: patent US20020026053A1

Attribute: Flk Kinase % Inhibition (P.110)
- Tested on: FLK-1 receptor
- Protocol notes: FLK-1 Assay (cellular/catalytic ELISA, VEGF-stimulated phosphotyrosine)
- Assay type: cell-based
- Parameters: concentration or dose not given beside the values
- Assay context: protocol P.110
Dear colleague, please return just the value in %, with no unit written.

As a guide, the following entries are already answered.
// Input: O=C1Nc2ccc(CCCl)cc2C1=Cc1ccsc1 . Output its Flk Kinase % Inhibition (P.110) only.
−18.6

Please report Flk Kinase % Inhibition (P.110) for the following compound: COc1ccc(C=C2C(=O)Nc3ccc(S(=O)(=O)Nc4ccc(C(F)(F)F)cc4)cc32)cc1F
11.1

State its Flk Kinase % Inhibition (P.110): COc1ccc(C=C2C(=O)Nc3ccc(Br)c(C)c32)cc1C
−10.8

Give reported Flk Kinase % Inhibition (P.110) value for Cc1c(Br)ccc2c1C(=Cc1ccc(CO)o1)C(=O)N2
70.6

Please indicate Flk Kinase % Inhibition (P.110) recorded for COc1ccc(C=C2C(=O)Nc3c(Br)cc(Br)c(C)c32)cc1O
−17.9

More entries:
Give the measured Flk Kinase % Inhibition (P.110) for CC(C)c1ccc(C=C2C(=O)Nc3ccc(I)cc32)cc1
14.3

Name the recorded Flk Kinase % Inhibition (P.110) of the compound listed here: Cc1ccc(C)c(C=C2C(=O)Nc3ccc(S(=O)(=O)N4CCOCC4)cc32)c1
19.1

----------
Each item that follows carries a reported Met Kinase % Inhibition (P.130).
- Target system: Met receptor (EGFR/Met chimeric cells, EMR) (Homo sapiens)
- Construct: expressed in transfected cells; the other entry of the earlier key: EGFR (P00533, Epidermal growth factor receptor)
- Protocol notes: Met Autophosphorylation Assay
- Format: biochemical
- Assay context: protocol P.130
A number alone suffices; assume %.

Write down Met Kinase % Inhibition (P.130) measured for item Cn1cc(C=C2C(=O)Nc3ccc(S(=O)(=O)N4CCOCC4)cc32)c2ccccc21
28.4

Respond only with Met Kinase % Inhibition (P.130) recorded for Cc1c(Br)ccc2c1C(=Cc1cn(C)c3ccccc13)C(=O)N2
44.3

Note down Met Kinase % Inhibition (P.130) recorded for COc1ccccc1C=C1C(=O)Nc2c(Br)cc(Br)cc21
20.2

Answer with reported Met Kinase % Inhibition (P.130) of COc1ccc(C=C2C(=O)Nc3ccc(S(=O)(=O)N4CCOCC4)cc32)cc1C
50.8

Quote Met Kinase % Inhibition (P.130) reported for Cc1c(Br)cc(Br)c2c1C(=Cc1ccc(CO)o1)C(=O)N2 please.
75.8

Assign Met Kinase % Inhibition (P.130) to the following record: O=C1Nc2ccc(I)cc2C1=Cc1ccc(CO)o1
84.9

Next:
Check the records and state Met Kinase % Inhibition (P.130) for O=C1Nc2ccc(CCCl)cc2C1=Cc1cccc(Oc2ccc(Cl)c(Cl)c2)c1
32.8

Supply reported Met Kinase % Inhibition (P.130) belonging to this compound: O=C1Nc2ccc(S(=O)(=O)Nc3ccc(C(F)(F)F)cc3)cc2C1=Cc1cccc(O)c1O
92.4

Quick one: give measured Met Kinase % Inhibition (P.130) for O=C1Nc2ccc(I)cc2C1=Cc1cccc(F)c1F
89.5

Consider the compound CNS(=O)(=O)c1ccc2c(c1)C(=Cc1cc(C)ccc1C)C(=O)N2 and give its recorded Met Kinase % Inhibition (P.130).
37.0

Supply Met Kinase % Inhibition (P.130) value. Item: O=C1Nc2ccc(I)cc2C1=Cc1cccc(O)c1O
83.6

Identify measured Met Kinase % Inhibition (P.130) associated with O=C1Nc2ccc(S(=O)(=O)N3CCOCC3)cc2C1=Cc1cccc(F)c1F
67.1

----------
- Target system: Met receptor (EGFR/Met chimeric cells, EMR) (Homo sapiens)
- Construct: expressed in transfected cells; the other entry of the earlier key: EGFR (P00533, Epidermal growth factor receptor)
- Protocol notes: Met Autophosphorylation Assay
- Assay type: biochemical
Metric: Met Kinase % Inhibition (P.130) (%)
Please give a number only; it is taken to be in %.

Answer with the recorded Met Kinase % Inhibition (P.130) of O=C1Nc2ccc(S(=O)(=O)Nc3ccc(C(F)(F)F)cc3)cc2C1=Cc1cccc(F)c1O [10734/E08] only.
89.1

Write down Met Kinase % Inhibition (P.130) measured for item Cc1c(Br)cc(Br)c2c1C(=Cc1cc(Br)c(OCc3ccccc3)c(C(C)(C)C)c1)C(=O)N2 [10732/H08]
38.7

----------
- Target system: Met receptor (EGFR/Met chimeric cells, EMR) (Homo sapiens, UniProt P08581)
- Construct: expressed in transfected cells; the other entry of the earlier key: EGFR (P00533, Epidermal growth factor receptor)
- Sequence (P08581 with tags, fused parts or gaps): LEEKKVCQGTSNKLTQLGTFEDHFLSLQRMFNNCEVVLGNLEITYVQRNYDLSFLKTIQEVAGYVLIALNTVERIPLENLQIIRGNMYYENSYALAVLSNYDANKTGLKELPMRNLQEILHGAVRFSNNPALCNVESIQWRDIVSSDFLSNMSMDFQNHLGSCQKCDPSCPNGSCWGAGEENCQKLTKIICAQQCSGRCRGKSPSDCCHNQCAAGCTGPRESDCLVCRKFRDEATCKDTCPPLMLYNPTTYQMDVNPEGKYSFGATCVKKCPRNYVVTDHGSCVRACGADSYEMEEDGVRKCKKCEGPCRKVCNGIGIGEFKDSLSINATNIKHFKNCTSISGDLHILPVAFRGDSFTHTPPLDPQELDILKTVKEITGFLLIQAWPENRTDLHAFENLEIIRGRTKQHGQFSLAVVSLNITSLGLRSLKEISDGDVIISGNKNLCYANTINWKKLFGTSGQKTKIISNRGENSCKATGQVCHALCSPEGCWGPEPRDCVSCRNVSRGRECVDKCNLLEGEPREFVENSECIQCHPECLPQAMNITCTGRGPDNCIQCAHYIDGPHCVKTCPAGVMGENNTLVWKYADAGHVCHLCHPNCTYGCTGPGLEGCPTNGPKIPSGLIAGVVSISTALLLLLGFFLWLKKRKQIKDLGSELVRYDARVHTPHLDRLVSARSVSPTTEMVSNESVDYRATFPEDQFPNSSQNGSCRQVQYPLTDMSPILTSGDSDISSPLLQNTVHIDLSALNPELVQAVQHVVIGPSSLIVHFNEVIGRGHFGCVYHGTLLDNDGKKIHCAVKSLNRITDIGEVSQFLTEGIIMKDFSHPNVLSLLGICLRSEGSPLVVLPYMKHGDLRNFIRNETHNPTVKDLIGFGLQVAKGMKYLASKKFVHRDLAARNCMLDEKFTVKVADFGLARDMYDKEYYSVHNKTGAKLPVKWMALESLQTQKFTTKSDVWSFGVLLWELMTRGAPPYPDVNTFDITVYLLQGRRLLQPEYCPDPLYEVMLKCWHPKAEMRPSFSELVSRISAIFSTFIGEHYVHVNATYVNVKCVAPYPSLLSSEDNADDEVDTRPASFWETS
- Protocol notes: Met Autophosphorylation Assay
- Type: biochemical
Metric: Met Kinase % Inhibition (P.130) (%)
The figure you give is taken to be in %; do not add the unit.

Check out these entries, answers already filled in.
For the compound O=C1Nc2ccc(CCCl)cc2C1=Cc1c(F)cccc1F , give its measured Met Kinase % Inhibition (P.130) value.
29.9

Provide only the value of recorded Met Kinase % Inhibition (P.130) for COc1cc(C=C2C(=O)Nc3c(Br)cc(Br)c(C)c32)cc(OC)c1
32.9

Please look at this compound and report its Met Kinase % Inhibition (P.130): COc1cc(Br)c(O)c(C=C2C(=O)Nc3c(Br)cc(Br)c(C)c32)c1
90.8

Now take the following compound into account.
Give Met Kinase % Inhibition (P.130) for the following compound: CNS(=O)(=O)c1ccc2c(c1)C(=Cc1ccc(Cl)cc1)C(=O)N2
44.4

----------
- Target system: Met receptor (EGFR/Met chimeric cells, EMR) (Homo sapiens, UniProt P08581)
- Construct: expressed in transfected cells; the other entry of the earlier key: EGFR (P00533, Epidermal growth factor receptor)
- Protocol notes: Met Autophosphorylation Assay
- Format: biochemical
The following molecules are listed with their measured Met Kinase % Inhibition (P.130) values.
Write the answer as a number in %, unit excluded.

Sample answers from the record:
State the measured Met Kinase % Inhibition (P.130) (Met receptor (EGFR/Met chimeric cells, EMR) (Homo sapiens, UniProt P08581)) of CCOc1cccc(C=C2C(=O)Nc3c(Br)cc(Br)cc32)c1O
51.1

Param request: Met Kinase % Inhibition (P.130) | system Met receptor (EGFR/Met chimeric cells, EMR) (Homo sapiens, UniProt P08581) | item CC(=O)n1cc(C=C2C(=O)Nc3c(Br)cc(Br)c(C)c32)c2ccccc21
30.7

State, for Met receptor (EGFR/Met chimeric cells, EMR) (Homo sapiens, UniProt P08581), measured Met Kinase % Inhibition (P.130) of the molecule listed here: CCc1cc(CC)c(C=C2C(=O)Nc3c(Br)cc(Br)c(C)c32)[nH]1
49.2

State Met Kinase % Inhibition (P.130) (Met receptor (EGFR/Met chimeric cells, EMR) (Homo sapiens, UniProt P08581)) of N#Cc1ccccc1C=C1C(=O)Nc2ccc(I)cc21 .
56.0

Look up Met receptor (EGFR/Met chimeric cells, EMR) (Homo sapiens, UniProt P08581) data: Met Kinase % Inhibition (P.130) of CNS(=O)(=O)c1ccc2c(c1)C(=Cc1cccc(C)c1)C(=O)N2 , then report it.
8.1

Continuing:
Return reported Met Kinase % Inhibition (P.130) for target or system Met receptor (EGFR/Met chimeric cells, EMR) (Homo sapiens, UniProt P08581), item Cc1c(Br)cc(Br)c2c1C(=Cc1ccccc1Br)C(=O)N2 .
44.9

Quote Met Kinase % Inhibition (P.130) with test system Met receptor (EGFR/Met chimeric cells, EMR) (Homo sapiens, UniProt P08581) for O=C1Nc2ccc(CCCl)cc2C1=Cc1ccc(Br)s1
20.2

Please tell me the measured Met Kinase % Inhibition (P.130) for O=C1Nc2c(Br)cc(Br)cc2C1=Cc1ccc([N+](=O)[O-])cc1 ; system: Met receptor (EGFR/Met chimeric cells, EMR) (Homo sapiens, UniProt P08581).
46.9

Give Met Kinase % Inhibition (P.130); test system Met receptor (EGFR/Met chimeric cells, EMR) (Homo sapiens, UniProt P08581); molecule CNS(=O)(=O)c1ccc2c(c1)C(=Cc1ccc(O)c(Br)c1)C(=O)N2
88.0

# return Met Kinase % Inhibition (P.130) for CSc1ccc(C=C2C(=O)Nc3c(Br)cc(Br)c(C)c32)s1 , test system: Met receptor (EGFR/Met chimeric cells, EMR) (Homo sapiens, UniProt P08581)
10.8

Give the observed Met Kinase % Inhibition (P.130) of Cc1c(Br)cc(Br)c2c1C(=Cc1cc(C(C)(C)C)c(O)c(C(C)(C)C)c1)C(=O)N2 for Met receptor (EGFR/Met chimeric cells, EMR) (Homo sapiens, UniProt P08581).
46.0

Provide Met receptor (EGFR/Met chimeric cells, EMR) (Homo sapiens, UniProt P08581) Met Kinase % Inhibition (P.130) reading for CSc1ccc(C=C2C(=O)Nc3c(Br)cc(Br)c(C)c32)cc1 .
25.1

Please look at O=C1Nc2ccc(S(=O)(=O)N3CCOCC3)cc2C1=Cc1cc(F)cc(F)c1 and tell me its recorded Met Kinase % Inhibition (P.130) on Met receptor (EGFR/Met chimeric cells, EMR) (Homo sapiens, UniProt P08581).
41.6
